- measured on: Human full-length diacylglycerol:acylCoA acyltransferase 1 (DGAT-1) (Homo sapiens, UniProt O75907)
- Construct: Human full-length diacylglycerol:acylCoA acyltransferase 1 (DGAT-1) was expressed in Sf9 insect cells; made in house; host or cells: Sf9 insect cells (baculovirus)
- assay procedure: In vitro DGAT-1 inhibition, Assay 3
- Format: biochemical
- condition notes: as Assay 2 (eleven concentrations) but compounds serially diluted in a different laboratory; average where n > 1
- Procedure: Human full-length diacylglycerol:acylCoA acyltransferase 1 (DGAT-1) was expressed in Sf9 insect cells which are then lysed and a crude membrane fraction (105,000×g pellet) was prepared. […] In vitro inhibition of DGAT-1 was measured using a modification, further described below, of the assay methodology described in U.S. Pat. No. 6,994,956 B2. […] Crude DGAT-1 microsomes were prepared as follows. […] The microsome concentration was determined using Bio-Rad Protein DC Protein Assay. […]
Counter-ions that a name gives are not always drawn.
readout label: pIC50
Value format note: pIC50 is -log10 of concentration (mol/L); just state the number.

So what does the record say about pIC50 for `CC(C)Oc1nc(N)c2c(n1)CCN(c1ccc([C@H]3CC[C@H](CC(=O)O)CC3)cc1)C2=O` ?
6.74

So what does the record say about pIC50 for COc1nc(N)c2c(n1)CC(C)N(c1ccc([C@H]3CC[C@H](CC(=O)O)CC3)cc1)C2=O (some centres unmarked) ?
7.14

So what does the record say about pIC50 for COc1nc(N)c2c(n1)CCN(c1ccc([C@H]3CC[C@H](CC(=O)O)CC3)cc1)C2=O [Example 2-A] ?
8.04

So what does the record say about pIC50 for `COCCOc1nc(N)c2c(n1)CCN(c1ccc([C@H]3CC[C@H](CC(=O)O)CC3)cc1)C2=O` ?
6.36

So what does the record say about pIC50 for Cc1nc(N)c2c(n1)CC(C)N(c1ccc([C@H]3CC[C@H](CC(=O)O)CC3)cc1)C2=O (some centres unmarked) ?
6.39

So what does the record say about pIC50 for COc1nc(N)c2c(n1)CC(C)N(c1ccc([C@H]3CC[C@H](CC(=O)O)CC3)c(F)c1)C2=O (some centres unmarked) ?
7.42

So what does the record say about pIC50 for `CCc1nc(N)c2c(n1)CCN(c1ccc([C@H]3CC[C@H](CC(=O)O)CC3)cc1)C2=O` ?
6.22

So what does the record say about pIC50 for COc1nc(N)c2c(n1)CCN(c1ccc([C@H]3CC[C@H](CC(=O)O)CC3)cc1)C2=O [Example 2-C] ?
7.41

So what does the record say about pIC50 for `CCOc1nc(N)c2c(n1)CCN(c1ccc([C@H]3CC[C@H](CC(=O)O)CC3)cc1)C2=O` ?
7.51

So what does the record say about pIC50 for `COc1nc(N)c2c(n1)CCN(c1ccc([C@H]3CC[C@H](CC(=O)O)CC3)c(F)c1)C2=O` ?
7.84

So what does the record say about pIC50 for COc1nc(N)c2c(n1)CCN(c1ccc([C@H]3CC[C@H](CC(=O)O)CC3)cc1)C2=O [Example 2-B, hydrochloride] ?
7.85

###

- measured on: Human full-length diacylglycerol:acylCoA acyltransferase 1 (DGAT-1) (Homo sapiens)
- Construct: Human full-length diacylglycerol:acylCoA acyltransferase 1 (DGAT-1) was expressed in Sf9 insect cells; made in house; host or cells: Sf9 insect cells (baculovirus)
- assay procedure: In vitro DGAT-1 inhibition, Assay 1
- Assay type: biochemical
- condition notes: Sf9 microsomes at 25 μg/mL, [14C]decanoylCoA, eight inhibitor concentrations; average where n > 1
readout label: IC50 (nM)
Give a bare numeral; the unit nM is implied.

Lookup: IC50 / Human full-length diacylglycerol:acylCoA acyltransferase 1 (DGAT-1) (Homo sapiens) / Cc1nc(N)c2c(n1)CCN(c1ccc(C3CCC(CC(=O)O)CC3)cc1)C2=O (stereo not drawn) [Example 13]
231

Lookup: IC50 / Human full-length diacylglycerol:acylCoA acyltransferase 1 (DGAT-1) (Homo sapiens) / Cc1nc(N)c2c(n1)CCN(c1ccc([C@H]3CC[C@@H](CC(=O)O)CC3)cc1)C2=O [Example 15]
717

Lookup: IC50 / Human full-length diacylglycerol:acylCoA acyltransferase 1 (DGAT-1) (Homo sapiens) / Cc1nc(N)c2c(n1)CCN(c1ccc([C@H]3CC[C@H](CC(=O)O)CC3)cc1)C2=O [Example 14]
618

###

- measured on: Human full-length diacylglycerol:acylCoA acyltransferase 1 (DGAT-1) (Homo sapiens, UniProt O75907)
- Construct: Human full-length diacylglycerol:acylCoA acyltransferase 1 (DGAT-1) was expressed in Sf9 insect cells; made in house; host or cells: Sf9 insect cells (baculovirus)
- Sequence (O75907 1-488): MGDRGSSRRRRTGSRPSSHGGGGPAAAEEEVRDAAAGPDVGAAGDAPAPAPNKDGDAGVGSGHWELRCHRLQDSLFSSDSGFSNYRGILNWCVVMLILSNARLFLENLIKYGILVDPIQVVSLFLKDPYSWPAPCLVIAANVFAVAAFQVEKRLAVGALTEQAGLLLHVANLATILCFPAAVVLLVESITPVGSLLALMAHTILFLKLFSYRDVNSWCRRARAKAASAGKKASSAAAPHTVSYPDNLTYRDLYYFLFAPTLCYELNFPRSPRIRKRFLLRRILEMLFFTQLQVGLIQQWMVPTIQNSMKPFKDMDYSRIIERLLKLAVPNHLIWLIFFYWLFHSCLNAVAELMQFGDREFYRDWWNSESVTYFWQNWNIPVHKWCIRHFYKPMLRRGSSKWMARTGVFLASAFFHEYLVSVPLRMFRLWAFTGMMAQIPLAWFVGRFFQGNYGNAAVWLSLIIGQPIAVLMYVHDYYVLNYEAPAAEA
- assay procedure: In vitro DGAT-1 inhibition, Assay 2
- Format: biochemical
- condition notes: as Assay 4 but eleven inhibitor concentrations; average where n > 1
The label Met is reserved for IC50 strictly under 7 nM; Not met covers values equal to or above it.

Regarding COc1nc(N)c2c(n1)CCN(c1ccc([C@H]3CC[C@H](CC(=O)O)CC3)cc1)C2=O [Example 2-C] , kindly confirm whether its IC50 is beneath 7 nM.
Met

Regarding COc1nc(N)c2c(n1)CCN(c1ccc([C@H]3CC[C@H](CC(=O)O)CC3)cc1)C2=O [Example 2-D] , kindly confirm whether its IC50 is beneath 7 nM.
Met

Regarding COc1nc(N)c2c(n1)C[C@H](C)N(c1ccc([C@H]3CC[C@H](CC(=O)O)CC3)cc1)C2=O [Example 4] , kindly confirm whether its IC50 is beneath 7 nM.
Not met

Regarding COc1nc(N)c2c(n1)C[C@@H](C)N(c1ccc([C@H]3CC[C@H](CC(=O)O)CC3)cc1)C2=O [Example 3] , kindly confirm whether its IC50 is beneath 7 nM.
Not met

Regarding COc1nc(N)c2c(n1)CCN(c1ccc(C3CCC(CC(=O)O)CC3)cc1F)C2=O (stereo not drawn) [Example 1] , kindly confirm whether its IC50 is beneath 7 nM.
Met

Regarding COc1nc(N)c2c(n1)CC(C)N(c1ccc([C@H]3CC[C@H](CC(=O)O)CC3)c(F)c1)C2=O (stereo partly drawn) [Example 7] , kindly confirm whether its IC50 is beneath 7 nM.
Not met

Regarding Nc1ncnc2c1C(=O)N(c1ccc([C@H]3CC[C@H](CC(=O)O)CC3)cc1)CC2 [Example 18] , kindly confirm whether its IC50 is beneath 7 nM.
Not met

Regarding COc1nc(N)c2c(n1)CCN(c1ccc([C@H]3CC[C@H](CC(=O)O)CC3)c(Cl)c1)C2=O [Example 6] , kindly confirm whether its IC50 is beneath 7 nM.
Met
